test system: Aspergillus niger; test: Antifungal activity against Aspergillus niger assessed as growth inhibition at 50 ug/ml after 72 hrs by dilution method; type: functional, organism-based
Calls of active or inactive are those of the source. The rule behind the calls is not given here.
Your answer must be one of the following: YES = active, NO = inactive

Example entries begin here.
[[record]]
substance_smiles = "O=C(c1ccc(-c2ccccc2)cc1)[C@H]1O[C@@H]1c1ccccc1"
assigned_class = "NO"

[[record]]
substance_smiles = "O=C(c1ccc(-c2ccccc2)cc1)[C@H]1O[C@@H]1c1cccc(Br)c1"
assigned_class = "YES"

[[record]]
substance_smiles = "Cc1ccc([C@H]2O[C@@H]2C(=O)c2ccc(-c3ccccc3)cc2)cc1"
assigned_class = "NO"


**Query** For this molecule, state the assay outcome: CN(C)c1ccc([C@H]2O[C@@H]2C(=O)c2ccc(-c3ccccc3)cc2)cc1
**Result** YES

**Query** Could you kindly confirm the outcome this assay logged for O=C(c1ccc(-c2ccccc2)cc1)[C@H]1O[C@@H]1c1ccc(Cl)cc1 ?
**Result** NO

**Query** Field: outcome | Entry: O=C(c1ccc(-c2ccccc2)cc1)[C@H]1O[C@@H]1c1ccc([N+](=O)[O-])cc1
**Result** NO

**Query** What classification did O=C(c1ccc(-c2ccccc2)cc1)[C@H]1O[C@@H]1c1ccccc1[N+](=O)[O-] end up with in this test?
**Result** NO

Reference source: ChEMBL document CHEMBL3046202
